Target: human GGTase (Homo sapiens, UniProt P53609)
Experiment: Human GGTase inhibition (Hu GG)
Format: biochemical
Details: Table 3 Piperidine Analogs; read-out: IC50 (nM) Hu GG
Excerpt: As described below, a variety of different compounds were synthesized and tested for inhibitory activity against human and Candida GGTase. Exemplary synthesis schemes for generating prenyltransferase inhibitors useful in the methods and compositions of the present invention are shown in FIGS. 1-56. Tables 1-5 provide Structure-Activity relationship (SAR) data for several different classes of prenyltransferase inhibitors.
quantity: IC50

- molecule: "N[C@@H](CS)C(=O)N1CCC(C(=O)NCc2ccncc2)(c2ccccc2)CC1 [Compound 53k]"
  experimental.system: "human GGTase (Homo sapiens, UniProt P53609)"
  IC50: "> 1000 nM"

molecule N[C@@H](CS)C(=O)N1CCC(C(=O)NCCc2cccs2)(c2ccccc2)CC1 [Compound 53d] , IC50 observed: > 1000 nM

// sample N[C@@H](CS)C(=O)N1CCC(C(=O)NCc2cccc3ccccc23)(c2ccccc2)CC1 [Compound 53w] , its IC50 was > 500 nM

Quick note, IC50 for CC(C)CCNC(=O)C1(c2ccccc2)CCN(C(=O)[C@@H](N)CS)CC1 [Compound 53c] landed at < 100 nM

Sample N[C@@H](CS)C(=O)N1CCC(C(=O)NCC(c2ccccc2)c2ccccc2)(c2ccccc2)CC1 [Compound 53y] ; IC50 observed: < 500 nM

Documented IC50 of N[C@@H](CS)C(=O)N1CCC(C(=O)NCC(=O)Nc2ccc3ccccc3c2)(c2ccccc2)CC1 [Compound 53o] : > 1000 nM

Form field IC50, entry N[C@@H](CS)C(=O)N1CCC(C(=O)NCCCN2CCOCC2)(c2ccccc2)CC1 [Compound 53f] : > 1000 nM

So, CC(C)C[C@H](NC(=O)C1(c2ccccc2)CCN(C(=O)[C@@H](N)CS)CC1)C(N)=O [Compound 53i] ? Its IC50 was < 100 nM

Notebook: N[C@@H](CS)C(=O)N1CCC(C(=O)NCc2ccccc2)(c2ccccc2)CC1 [Compound 53bb] , IC50 read as > 1000 nM

The values you see were collected from patent US6423519B1.
